# System: MCF-7 (breast carcinoma)
# Assay details: Cytostatic activity, MTT assay
# Assay type: cell-based, human
# Settings: Homo sapiens, MCF7, 72 h, read-out: Tumour cell growth/IC50 MCF-7
Measure name: pIC50
Scale explanation: pIC50 corresponds to minus log10 of a concentration expressed in moles per litre.

Answered examples (2):
[
  {
    "Compound": "Nc1ccc(Oc2ccnc(C(=O)NCCc3ccccc3)c2)cc1 [Compound 3e]",
    "System name": "MCF-7 (breast carcinoma)",
    "pIC50": 4.47
  },
  {
    "Compound": "O=C(Nc1ccc(Oc2ccnc(C(=O)NCc3ccccc3)c2)cc1)Nc1ccc(Cl)c(C(F)(F)F)c1 [Compound 4d]",
    "System name": "MCF-7 (breast carcinoma)",
    "pIC50": 5.70
  }
]

Quick check: pIC50 of Nc1ccc(Oc2ccnc(C(=O)NC3CCCC3)c2)cc1 [Compound 3a] ?
4.28

Quick check: pIC50 of O=C(Nc1ccc(Oc2ccnc(C(=O)NC3CCCC3)c2)cc1)Nc1ccc(Cl)c(C(F)(F)F)c1 [Compound 4a] ?
5.40

Quick check: pIC50 of O=C(Nc1ccc(Oc2ccnc(C(=O)NC3CCCCC3)c2)cc1)Nc1ccc(Cl)c(C(F)(F)F)c1 [Compound 4b] ?
5.70
